Source: the NIST ThermoML archive (doi:10.1021/je700670k)

Entries and their mass density
- Condition details: 353.15 K; 1000 kPa; Liquid; Vibrating tube method
Write the answer as a number in kg/m3, unit excluded.

Query: Could you tell me which mass density is on file for CCn1cc[n+](C)c1.O=S(=O)([O-])C(F)(F)F [1-ethyl-3-methylimidazolium trifluoromethanesulfonate] ?
Reply: 1325.9

----------
Entries and their mass density
- Condition details: 393.15 K; 30000 kPa; Liquid; Vibrating tube method
± gives the expanded uncertainty stated by the source.
Write the numeric value and append its unit.

[
  {
    "Molecule": "CCCC[N+]1(C)CCCC1.O=S(=O)([N-]S(=O)(=O)C(F)(F)F)C(F)(F)F",
    "mass density": "1342.2 ± 12 kg/m3"
  },
  {
    "Molecule": "CCC[n+]1cccc(C)c1.O=S(=O)([N-]S(=O)(=O)C(F)(F)F)C(F)(F)F",
    "mass density": "1383.2 ± 12 kg/m3"
  },
  {
    "Molecule": "CCC[N+]1(C)CCCCC1.O=S(=O)([N-]S(=O)(=O)C(F)(F)F)C(F)(F)F",
    "mass density": "1348.9 ± 12 kg/m3"
  },
  {
    "Molecule": "CCC[N+]1(C)CCCC1.O=S(=O)([N-]S(=O)(=O)C(F)(F)F)C(F)(F)F",
    "mass density": "1370 ± 12 kg/m3"
  }
]

# evaluate next
Query: Could you tell me which mass density is on file for CCn1cc[n+](C)c1.O=S(=O)([O-])C(F)(F)F [1-ethyl-3-methylimidazolium trifluoromethanesulfonate] ?
Reply: 1312 ± 12 kg/m3
